Listed here: items and their measured self-cleavage.
B1: CPEB3 Ribozyme (parent)
chain: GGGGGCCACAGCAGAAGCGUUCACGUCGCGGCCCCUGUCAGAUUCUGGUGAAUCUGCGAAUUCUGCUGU

Variants of: B1
Experiment: self-cleavage, relative activity (ratio to wild type); higher = more cleavage; co-transcriptional

sequenceContent: GGGGGCCACAGCAGAAGCGUUCACGACGCGGCCCCUGUCAGAUUCUGGUGAAUCUGUGAAUUCUGCUGU
self-cleavage: 0.39

sequenceContent: GGGGGCCACAGCAGAAGCGUUCACGUCGCGGCGCCUGUCAGAUUCUGGUGAAACUGCGAAUUCUGCUGU
self-cleavage: 0.395

sequenceContent: GGGGGCCACAGCAGAAGCGUCCACGUCGCGUCCCCUGUCAGAUUCUGGUGAAUCUGCGAAUUCUGCUGU
self-cleavage: 0.395

sequenceContent: GGGAGCCACAGCAGAAGCGUUCACGUCGCGGCCCCUGUCAGAUUCUGGUGAAUCUGCGAAUUCUUCUGU
self-cleavage: 0.406

Data origin: the RNAGym collection of RNA variant scans (doi:10.7554/elife.80360)
